B1: TRIM43 (parent)
chain: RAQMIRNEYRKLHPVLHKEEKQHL

Variants of: B1
Assay: protein stability index of a GFP-peptide fusion (GPS, HEK-293T) (PSI 1-6); higher = more stable;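 note: lentivirally expressed fusions sorted by FACS into six bins by GFP to DsRed ratio, PSI derived from sequencing read proportions per bin multiplied by bin number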
Details: c terminus: a fixed tail appended
measured parameter: protein stability index
Simply state the number, no unit and no words.

Given item `K21N` , the value recorded as its protein stability index is 2.77

Entry `L16A` — recorded protein stability index = 3.52

For record `R10K` the listed protein stability index is 2.91

Memo: `A2V` , reported protein stability index: 2.78

The variant identified as `Q22G` registered its protein stability index at 2.34

Would you kindly look at the next entry?
# protein stability index of `K21F` = 2.58
